Conditions: Ebola virus entry reporter assay, green channel fluorescence
Entries with a potency or affinity are not part of this list. The source made the active and inactive calls.
assay_readout: outcome

| molecule | observed_value |
| --- | --- |
| NC(=O)N1c2ccccc2CC(=O)c2ccccc21 | inactive |
| COc1ccc(C(CN(C)C)C2(O)CCCCC2)cc1 (stereo unspecified) | inactive |
| CC1=C(C(=O)O)N2C(=O)[C@@H](NC(=O)[C@H](N)c3ccc(O)cc3)[C@H]2SC1 | inactive |
| Cc1[nH]c(=O)c(C#N)cc1-c1ccncc1 | inactive |
| O=C(CCCCCCC(=O)Nc1ccccc1)NO | inactive |
| COc1ccc2nc(S(=O)Cc3ncc(C)c(OC)c3C)[nH]c2c1 (stereo unspecified) | inactive |

====

Test: qHTS of pediatric cancer cell lines to identify multiple opportunities for drug repurposing: Primary screen for LAN-5 cells (AID 1347100)
Settings: LAN-5 neuroblastoma viability, CellTiter-Glo luminescence, 48 h; series mostly up to 46 µM
Records with an inconclusive call do not appear. Calls of active or inactive are those of the source. Calls follow the shape of the dose curve; as a rule, active = well fitted cell-killing curve with a large enough effect; inconclusive = small, poorly fitted or top-dose-only effect; inactive = no such curve, though single readings can be large or run the other way.
Labels: TRUE for active, FALSE for inactive

| compound | cat |
| --- | --- |
| CCC(=O)C(CC(C)N(C)C)(c1ccccc1)c1ccccc1 (stereo unspecified) | FALSE |
| C#CCOC(C(=O)OCCN(C)C)(c1ccccc1)c1ccccc1 | FALSE |
| CCN(CC)C(=O)N[C@@H]1C=C2c3cccc4[nH]cc(c34)C[C@@H]2N(C)C1 | FALSE |
| CN(C)CCc1ccc(O)cc1 | FALSE |
| Cc1cc(SCc2sc(-c3ccc(C(F)(F)F)c(F)c3)nc2C)ccc1OCC(=O)O | FALSE |
| NCC(O)c1ccc(O)cc1 (stereo unspecified) | FALSE |
| Clc1ccc(CCC(Cn2ccnc2)Sc2c(Cl)cccc2Cl)cc1 (stereo unspecified) | TRUE |
| Cc1ncc(CNC(=O)N(CCCl)N=O)c(N)n1 | FALSE |
| CC(C)(C)NCC(O)c1cc(Cl)c(N)c(Cl)c1 (stereo unspecified) | FALSE |
| CC[C@@H](CO)NC(=O)[C@@H]1C=C2c3cccc4[nH]cc(c34)C[C@H]2N(C)C1 | FALSE |
| COc1ccccc1N1CCNCC1 | FALSE |
| CCCN1CCC[C@@H]2Cc3[nH]ncc3C[C@H]21 | FALSE |
| CC(CCc1ccccc1)NC(C)C(O)c1ccc(O)cc1 (stereo unspecified) | FALSE |
| N[C@@H]1C[C@H]1c1ccccc1 | FALSE |
| CC(=O)[C@H]1CC[C@H]2[C@@H]3CC[C@H]4C[C@](C)(O)CC[C@]4(C)[C@H]3CC[C@]12C | FALSE |
| Cc1ccc(-c2nc3ccc(C)cn3c2CC(=O)N(C)C)cc1 | FALSE |
| O=C(NC(O)C(Cl)(Cl)Cl)NC(O)C(Cl)(Cl)Cl (stereo unspecified) | FALSE |
| C[C@]12CC[C@H]3[C@@H](CCC4=CC(=O)CC[C@@H]43)[C@@H]1CC[C@@H]2OC(=O)CCc1ccccc1 | FALSE |
| CC(C)=CCOc1c2occc2cc2ccc(=O)oc12 | FALSE |
| COC1(CS(=O)c2ccccc2)CCN(CCc2c[nH]c3ccc(F)cc23)CC1 (stereo unspecified) | FALSE |
| CCN(CC)CCOC(=O)C(O)(c1ccccc1)c1ccccc1 | FALSE |
| CCC(C(N)=O)N1CCCC1=O (stereo unspecified) | FALSE |
| CNCC(O)c1ccc(O)cc1 (stereo unspecified) | FALSE |
| O=C(O)c1ccc2[nH]cc(CCCCN3CC=C(c4ccccc4)CC3)c2c1 | FALSE |
| CC1=C2C[C@@H]3[C@@H](CC=C4C[C@@H](O)CC[C@@]43C)[C@@H]2CC[C@]12O[C@H]1C[C@H](C)CN[C@H]1[C@H]2C | FALSE |
| Cc1cccc(C)c1NC(=O)CN1CCCC1=O | FALSE |
| CC[N+](CC)(CC)CC | FALSE |
| N[C@@H](Cc1ccc(Oc2cc(I)c(O)c(I)c2)c(I)c1)C(=O)O | FALSE |
| C=C1C[C@@H]2[C@H](CC[C@]3(C)C(=O)CC[C@@H]23)[C@@]2(C)C=CC(=O)C=C12 | FALSE |
| CC(C)(N)Cc1ccc(Cl)cc1 | FALSE |
| C[C@@H]1[C@@H](CC(C[C@H]2O[C@@H]3O[C@]4(C)CC[C@@H]5[C@H](C)CC[C@@H]([C@H]2C)[C@@]35OO4)C[S+](=O)([O-])c2ccc(COC(=O)N(C)C)cc2)O[C@@H]2O[C@]3(C)CC[C@H]4[C@H](C)CC[C@@H]1[C@@]24OO3 (stereo partly specified) | TRUE |

Values were extracted from PubChem BioAssay (NCATS).
